biological target: UniProt:P30989; experiment: NTR1 radioligand binding assay (RLB, Cerep); set-up: host or cells: CHO cells (receptor preparation); conditions: CHO cells recombinantly expressing the human receptor; 0.05 nM 125I-(Tyr3-neurotensin); 60 min at 4° C.
Sequence (P30989 whole entry): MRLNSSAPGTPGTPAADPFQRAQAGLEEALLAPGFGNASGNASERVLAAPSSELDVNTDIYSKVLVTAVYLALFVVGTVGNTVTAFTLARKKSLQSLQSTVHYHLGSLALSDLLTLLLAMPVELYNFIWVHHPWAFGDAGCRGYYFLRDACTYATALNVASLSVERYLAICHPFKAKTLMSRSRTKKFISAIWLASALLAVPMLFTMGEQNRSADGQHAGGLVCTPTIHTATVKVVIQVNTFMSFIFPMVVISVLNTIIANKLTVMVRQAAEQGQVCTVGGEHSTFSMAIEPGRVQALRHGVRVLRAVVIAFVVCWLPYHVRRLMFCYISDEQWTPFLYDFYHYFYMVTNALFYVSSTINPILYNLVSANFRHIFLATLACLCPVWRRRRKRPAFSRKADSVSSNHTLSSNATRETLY
RECORDED METRIC: IC50

# input Item COc1cccc(OC)c1-c1cc(C(=O)NC2(C(=O)O)C3CC4CC(C3)CC2C4)nn1-c1ccc(C(=O)N(C)CCCN(C)CCCN(C)C(=O)c2ccc(F)cc2)cc1C(C)C (stereo not shown) [(IIIg)] has what recorded IC50?
# output 2 nM
